Collected IC50 for Tyrosine-protein kinase JAK3 (Homo sapiens, UniProt P52333) across several studies; compounds listed below.

The following compounds have reported results that may help.
Cc1cccc(Nc2cc(Nc3cccc(NC(=O)/C=C/CN(C)C)c3)ncn2)c1 ... 10 to 100 nM
CC(C)(C)S(=O)(=O)Nc1cccc(-c2csc3cnc(Nc4ccc5c(c4)CCN4CCNCC54)nc23)c1 (stereo not shown) ... 18 nM
CN(c1ncnc2[nH]ccc12)C1CC2(C1)CN(C(=O)c1cc3ccccc3s1)C2 ... 1000 to 10000 nM

IC50 reported for this compound CCN(c1ccc(Cl)cc1CNc1nc(-c2cc(F)c(O)cc2CC(F)(F)F)cc2[nH]nc(C(N)=O)c12)S(C)(=O)=O : 537 nM

Given item COCCCCn1c(=O)[nH]c2c(N3CC(F)(F)C3)nc(-n3cnc4ccc(C#N)cc43)nc21 , the value recorded as its IC50 is < 100 nM

The compound listed as CN(c1ncnc2[nH]ccc12)N1CCOC(C(=O)NCC(F)(F)F)C1 (stereo not shown) has a reported IC50 of 100 to 1000 nM

Sure, the documented IC50 for C=CC(=O)N1CCC[C@@H](Nc2nc(Nc3cccs3)nc3ccsc23)C1 is 10 to 100 nM

Value of IC50 reported for the compound CCC(CC)n1cc(-c2nc(-c3cnn(C[C@H]4C[C@@H](O)C4)c3)cn3nccc23)cn1 is 1000 to 10000 nM

Notebook: Cn1cc(-c2cc3nccn3c(-c3cnn(CCC#N)c3)n2)cn1 , IC50 read as > 1000 nM

CCOC(=O)c1nc(-n2cnc3ccc(F)cc32)nc2c1[nH]c(=O)n2C1CCOc2ccccc21 (stereo not shown) yielded IC50 of 100 to 1000 nM

compound CCC(=O)c1cnc(Nc2cnc(C(N(C)C)C(F)(F)F)cn2)cc1Nc1cccc(-c2ncn(C)n2)c1OC (stereo not shown) , IC50 observed: ≥ 500 nM

Lab note: measured IC50 of O=C(NCCCC(F)(F)F)c1noc2c1CN(c1ncnc3[nH]ccc13)CC2 was < 100 nM

Noted for N#CCC(C1CC1)n1cc(-c2nc(-c3cnc4n3CCNC4)cc3nccn23)cn1 (stereo not shown) : its IC50 reads > 1000 nM

Quick note, IC50 for NC(=O)c1cnc(Nc2ccccn2)cc1Nc1ccccc1Cl landed at 9 nM

For COCCOCCO[C@H]1CNc2cc(Nc3ncc(C(N)=O)c(NC4CC4)n3)ccc2OC1 the compound record lists IC50 as 10 to 100 nM

====

pIC50: −log10 of the molar value.
Reported pIC50 against Tyrosine-protein kinase JAK3 (Homo sapiens, UniProt P52333), gathered from multiple publications, appears below.

C=CC(=O)Nc1cccc(Oc2nc(Nc3ccc(N4CCC(N5CCCC5)CC4)nc3)nc3ccsc23)c1 ... 7.00 to 7.30
CNC(=O)c1ccc(-c2cc3c(N[C@H](C)C4CC4)c(C(N)=O)cnn3c2)cn1 ... 8.74
Cc1cccc(-c2cnc3[nH]ccc3c2N[C@@H]2CCCN(C(=O)CC#N)C2)n1 ... 7.00 to 8.00
CCC(=O)c1cnc(Nc2ccc(CN(C)CC)cn2)cc1Nc1cccc(-c2ncn(C)n2)c1OC ... ≤ 6.30

Param item: C[S+]([O-])c1cnc(-c2cnc3[nH]ccc3c2N[C@@H]2CCCN(C(=O)CC#N)C2)s1 (stereo partly shown) ; param system: Tyrosine-protein kinase JAK3 (Homo sapiens, UniProt P52333); output pIC50: ≥ 8.00

Fill in: Tyrosine-protein kinase JAK3 (Homo sapiens, UniProt P52333) pIC50 for CCC(CC)n1cc(-c2nc(-c3cnn([C@H](C)[C@H](O)CO)c3)cn3nccc23)cn1 (single isomer, unassigned) = 5.00 to 6.00

Cc1ccsc1C(=O)N1CC2(CC(N(C)c3ncnc4[nH]ccc34)C2)C1 on Tyrosine-protein kinase JAK3 (Homo sapiens, UniProt P52333) gives pIC50 = ≤ 5.00

Entry CCOC(=O)c1cnc2[nH]ccc2c1N[C@H]1CN(C(=O)C2(C#N)CC2)CC[C@H]1C : pIC50 on Tyrosine-protein kinase JAK3 (Homo sapiens, UniProt P52333) = 7.00 to 8.00

Summary: Cc1cccc(-c2nc3cnc(-n4cnc5ccc(F)cc54)nc3n2C2CCOCC2)n1 , Tyrosine-protein kinase JAK3 (Homo sapiens, UniProt P52333), pIC50 = < 6.00

Hey, Tyrosine-protein kinase JAK3 (Homo sapiens, UniProt P52333) data for Cn1cc(-c2cc3nccn3c(-c3cnn(C4(CC#N)CN(CC5CC5)C4)c3)n2)cn1 : pIC50 came out at < 6.00
